test system: MOLP-8 cells; experiment: MOLP-8 cell proliferation assay (alamarBlue); format: cell-based; conditions: inhibition of cell proliferation, 120 hours, human multiple myeloma cell line
Each entry below lists one item and its recorded pIC50 value.
A value of pIC50 is the negative decimal logarithm of a concentration given in moles per litre.

COc1ccc(CN2c3cc(Nc4ccc(S(=O)(=O)N5CCOCC5)cc4)ccc3N(C)C(=O)[C@H]2C)cc1 [Example 42]: 7.21
C[C@@H]1C(=O)N(C)c2ccc(Nc3ccc(C(=O)N4CCOCC4)cc3)cc2N1C1CCCC1 [Example 6]: 6.57
C[C@@H]1C(=O)N(C)c2ccc(Nc3ccc(S(=O)(=O)N4CCOCC4)cc3)cc2N1C1CCOCC1 [Example 47]: 6.30
COc1ccc(CN2c3cc(Nc4ccc(C(=O)NCC5COC5)cc4)ccc3N(C)C(=O)[C@H]2C)cc1 [Example 19]: 6.91
COc1ccc(CN2c3cc(Nc4ccc(C(=O)N5CCN(C(C)C)CC5)cc4)ccc3N(C)C(=O)[C@H]2C)cc1 [Example 22]: 7.03
C[C@@H]1C(=O)N(C)c2ccc(Nc3ccc(S(=O)(=O)N(C)C)cc3)cc2N1C1CCCC1 [Example 3]: 6.52
C[C@@H]1C(=O)N(C)c2ccc(Nc3ccc(C(=O)NC4CCN(C)CC4)cc3)cc2N1C1CCCCCC1 [Example 23]: 5.99
COc1ccc(CN2c3cc(Nc4ccc(C(=O)N5CCOCC5)cc4)ccc3N(C)C(=O)[C@H]2C)cc1 [Example 18]: 6.83
CC(=O)N1CCC(NC(=O)c2ccc(Nc3ccc4c(c3)N(C3CCOCC3)[C@H](C)C(=O)N4C)cc2)CC1 [Example 32]: 5.59
COc1ccc(CN2c3cc(Nc4ccc(S(=O)(=O)N(C)C)cc4)ccc3N(C)C(=O)[C@H]2C)cc1 [Example 41]: 7.11

Using known records, supply pIC50 for C[C@@H]1C(=O)N(C)c2ccc(Nc3ccc(S(=O)(=O)N(C)C)cc3)cc2N1C1CCCCCC1 [Example 45]
5.96

For C[C@@H]1C(=O)N(C)c2ccc(Nc3ccc(C(=O)NC4CC4)cc3)cc2N1C1CCCC1 [Example 2] , write its pIC50.
6.14

State its pIC50 for this compound: C[C@@H]1C(=O)N(C)c2ccc(Nc3ccc(C(=O)NCC4COC4)cc3)cc2N1Cc1ccccc1 [Example 9]
6.86

Identify pIC50 associated with the compound C[C@@H]1C(=O)N(C)c2ccc(Nc3ccc(C(=O)NCCN4CCN(C)CC4)cc3)cc2N1C1CCOCC1 [Example 30]
6.06

For COc1cc(C(=O)NC2CCN(C)CC2)ccc1Nc1ccc2c(c1)N(C1CCOCC1)[C@H](C)C(=O)N2C [Example 36] , write its pIC50.
6.17

Let me know recorded pIC50 for C[C@@H]1C(=O)N(C)c2ccc(Nc3ccc(S(=O)(=O)N4CCN(C)CC4)cc3)cc2N1C1CCOCC1 [Example 48] , thanks.
6.10

Determine from records and report pIC50 for C[C@@H]1C(=O)N(C)c2ccc(Nc3ccc(C(=O)N(C)C)cc3)cc2N1C1CCCC1 [Example 8]
6.28

Check the records and state pIC50 for COc1ccc(CN2c3cc(Nc4ccc(S(=O)(=O)N5CCN(C)CC5)cc4)ccc3N(C)C(=O)[C@H]2C)cc1 [Example 43]
7.46
